Tested on: IGROV1 ovarian
Experiment: NCI tumour cell line growth inhibition, 48 h; in the data active = GI50 below about 0.43 µM; inactive = the rest
API: response.call in y = active, n = inactive

CC(C)(C)OC(=O)N(CCCN(CCn1c2c(c3ccccc3c1=O)C(=O)c1ccccc1-2)C(=O)OC(C)(C)C)CCn1c2c(c3ccccc3c1=O)C(=O)c1ccccc1-2 = n
NCCCCn1c2c(c3ccccc3c1=O)C(=O)c1ccccc1-2 = y
COc1cc(C(=O)O[C@H](C(N)=O)[C@]2(C)CO2)c2ccccc2c1 = n

Now look at this entry.
Please indicate how the test categorized COc1ccc(/C(=N/Nc2ccc([N+](=O)[O-])cc2)Sc2cc(Cl)c(C)cc2S(N)(=O)=O)cc1 .
n

----------
TGI for assorted compounds
Tested on: UO-31 renal
Test: NCI tumour cell line growth inhibition, 48 h

# count of solved cases: 4
Cc1oc2nc(N(C)C)nc(Cl)c2c1C = > 100 µM
CC/C(=N/O)c1ccc(Br)s1 = > 100 µM
COC(=O)CCC(=O)NC1c2cccc3cccc(c23)Cn2c(=O)n(C)c(=O)n21 (centres undefined) = > 100 µM
CC[C@@H]1/C=C/C=C/C[C@H](C)[C@@H](O)[C@](C)(O)C(=O)[C@H](C)[C@@H](O)[C@H](C)C(=O)[C@H](C)[C@@H](O)[C@H](C)/C=C/C(=O)O[C@H]2[C@@H](C)[C@@H](CC1)O[C@]1(O[C@H](CC(C)O)[C@H](C)CC1=O)[C@@H]2C (some centres undefined) = > 20.4 µM

TGI lookup needed for COc1cc(Cc2cc(OC)c(OC)c(OC)c2)ccc1O , thanks.
> 100 µM

TGI lookup needed for CC(C)CCN=c1cc2n(-c3ccc(Cl)cc3)c3ccccc3nc-2cc1Nc1ccc(Cl)cc1 , thanks.
18.9 µM

----------
Test system: RPMI-8226 leukemia
API: response.call in True for active, False for inactive

CC(C)CSc1nc(Nc2ccccc2)c(C#N)c(-c2ccc(F)cc2)n1 = False
COC(=O)c1cc2c(c(C(=O)OC)c1O)C(=O)C=CC2=O = False

Please indicate how the test categorized COC(=O)[C@]12CCC(C)(C)C[C@H]1C1=CC[C@@H]3[C@@]4(C)C/C(=C/c5cccnc5)C(=O)C(C)(C)[C@@H]4CC[C@@]3(C)[C@]1(C)CC2 .
False

Please indicate how the test categorized CN1C(NC(=O)c2ccc(Cl)nc2)=NS(=O)(=O)c2cc(Cl)ccc21 .
False

Please indicate how the test categorized CC12CCCC(CC(=O)c3[nH]c4ccccc4c31)C2 (stereo not drawn) .
False

Please indicate how the test categorized COc1ccc(OC(=O)O[C@H]2[C@H](O[C@H]3[C@@H](O)COC(O[C@H]4C[C@H]5[C@@H]6CC=C7C[C@@H](O)CC[C@]7(C)[C@H]6CC[C@]5(C)[C@H]4[C@H](C)C(=O)CCC(C)C)[C@@H]3OC(C)=O)OC[C@@H](O)[C@@H]2O)cc1 (stereo partly drawn) .
True

Please indicate how the test categorized COc1ccc2cc(C(=O)/C=C/c3cccc(OC)c3OC)ccc2c1 .
False

Please indicate how the test categorized CC(C)=[CH][Sb]([Br])([CH]=C(C)C)([CH]=C(C)C)[CH]=C(C)C .
False

----------
System: SF-295 CNS
Assay: NCI tumour cell line growth inhibition, 48 h
Quantity name: TGI

# count of solved cases: 2
CC1=CC(=O)NP(=O)(Oc2ccc(C)cc2)N1 (centres undefined) = > 100 µM
COc1cc(Cn2c(-c3ccccc3)cc3c2-c2oncc2CC3)cc(OC)c1OC = 5.57 µM

TGI lookup needed for Nc1nc(Cl)cc(NCC2(CO)CC(OCc3ccccc3)C2)n1 (centres undefined) , thanks.
> 100 µM

TGI lookup needed for CCOC(=O)/C(O)=C(/C=NC(=S)c1ccncc1)C(=O)OCC , thanks.
> 100 µM

TGI lookup needed for CN(C)C(=S)/N=c1\ss/c(=N\C(=S)N(C)C)n1-c1ccc2c(c1)OCO2 , thanks.
> 100 µM

TGI lookup needed for O=[N+]([O-])C(C(Cl)=C(Cl)Cl)=C(N1CCOCC1)N1CCOCC1 , thanks.
> 100 µM

TGI lookup needed for CCOC(=O)N/N=C(/N)Cc1ccccc1 , thanks.
> 100 µM

TGI lookup needed for CCN(CC)C(=O)C/C(C)=N/NC(=O)c1ccncc1 , thanks.
> 100 µM
